biological target: furin, P09958; test: furin cleavage Z-score vs untreated control; higher = more cleavage, active = 3.5 or more, inactive = 1 or less, 8 variable residues between constant flanks; conditions: 30 min;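 note: purified furin at 1:10 enzyme:substrate in 50 mM HEPES pH 7.5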
Sequence (P09958 whole entry): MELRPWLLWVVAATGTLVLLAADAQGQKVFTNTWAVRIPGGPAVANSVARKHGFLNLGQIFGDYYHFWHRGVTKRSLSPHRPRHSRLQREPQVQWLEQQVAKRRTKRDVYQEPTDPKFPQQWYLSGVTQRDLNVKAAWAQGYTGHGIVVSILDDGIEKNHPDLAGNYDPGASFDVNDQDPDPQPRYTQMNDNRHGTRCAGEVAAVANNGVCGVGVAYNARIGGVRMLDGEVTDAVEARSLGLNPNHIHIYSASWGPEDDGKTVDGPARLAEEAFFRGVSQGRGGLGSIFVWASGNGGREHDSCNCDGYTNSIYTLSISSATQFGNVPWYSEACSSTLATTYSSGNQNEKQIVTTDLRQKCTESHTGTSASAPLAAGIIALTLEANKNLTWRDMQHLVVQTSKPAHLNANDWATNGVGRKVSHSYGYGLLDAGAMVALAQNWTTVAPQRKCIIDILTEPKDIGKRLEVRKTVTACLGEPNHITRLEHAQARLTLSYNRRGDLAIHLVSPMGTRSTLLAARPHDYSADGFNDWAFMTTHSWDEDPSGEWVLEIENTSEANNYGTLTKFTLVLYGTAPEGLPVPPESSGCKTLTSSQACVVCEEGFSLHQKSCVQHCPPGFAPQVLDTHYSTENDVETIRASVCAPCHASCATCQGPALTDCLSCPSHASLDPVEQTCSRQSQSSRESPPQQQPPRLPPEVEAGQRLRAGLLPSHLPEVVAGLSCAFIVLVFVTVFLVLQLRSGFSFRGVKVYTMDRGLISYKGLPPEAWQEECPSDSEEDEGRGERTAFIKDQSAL
This is one part of the list. No count for the full screen is at hand.
sequences and their reported furin cleavage Z-score
attribute measured: furin cleavage Z-score

| construct sequence | meas value |
| --- | --- |
| CARSRRRRRPAGNASASA [FS-1407] | 4.75 |
| CATKDRKRRSAGNASASA [FS-880] | 8.6 |
| CADNEVVTSTAGNASASA [HC2301] | 0.105 |
| CAFQRRRRRDAGNASASA [FS-906] | 8.45 |
| CARSRRTICVAGNASASA [FS-3239] | 3.9 |
| CAREYRGQRSAGNASASA [FS-705] | 0.594 |
| CALTRRMRRDAGNASASA [FS-177] | 9.72 |
| CASASRGPRSAGNASASA [FS-1078] | 4.87 |
| CATKDNFKRSAGNASASA [FS-727] | 3.93 |
| CARSNRDVFVAGNASASA [FS-1975] | 0.58 |
| CARSRRAATSAGNASASA [FS-3092] | 9.59 |
| CAKRGREFRIAGNASASA [FS-909] | -0.651 |
| CADRRRRRRDAGNASASA [FS-647] | 4.92 |
| CARVRRNKRSAGNASASA [FS-1275] | 9.58 |
| CARALAHGVRAGNASASA [HC235] | -0.193 |
| CALGKVIDTLAGNASASA [HC220] | -0.584 |
| CARVRRNAKKAGNASASA [FS-1978] | 7.62 |
| CARSRRAVSVAGNASASA [FS-2815] | 4.26 |
| CAPPSRRRRPAGNASASA [FS-1052] | 0.635 |
| CARLHGLSAFAGNASASA [HC1603] | 0.0737 |
| CARSRNLGKVAGNASASA [HC218] | 0.167 |
| CARVRKSLKKAGNASASA [FS-2534] | 5.83 |
| CAFQRRMAGMAGNASASA [FS-1671] | 0.306 |
| CARHRARSVRAGNASASA [HC1621] | 5.83 |
| CARAHRSVLAAGNASASA [FS-1943] | 2.24 |
| CAKRGRKRRSAGNASASA [FS-1021] | 11.2 |
| CARSRKIAESAGNASASA [FS-2526] | -0.238 |
| CATDDDFERSAGNASASA [FS-629] | 0.0381 |
| CARHIRLVLKAGNASASA [FS-2937] | -0.338 |
| CARAERGPRSAGNASASA [FS-1058] | 4.09 |
